- TESTED TARGET: Bromodomain-containing protein 4 (Homo sapiens, UniProt O60885, Y390A)
- PROTOCOL SUMMARY: Displacement of Alexa Fluor 647 labelled ligand from recombinant human N-terminal 6His-tagged BRD4-BD1 Y390A mutant (1 to 477 residue) expressed in Escherichia coli incubated for 30 mins by TR-FRET assay
MEASURED ENDPOINT: IC50
Answer format: value, then unit.

Value of measured IC50 for the entry COc1cc2c(cc1-c1c(C)noc1C)ncc1[nH]c(=O)n(C3CCNCC3)c12 : 2000 nM

Reported IC50 of COc1cc2c(cc1-c1c(C)noc1C)ncc1nc(N)n(Cc3ccccn3)c12 : 39.8 nM

Data point: COc1cc2c(cc1-c1c(C)noc1C)ncc1[nH]c(=O)n(CC3CCOC3)c12 (racemic) ; IC50 = 631 nM

Data point: COc1cc2c(cc1-c1c(C)noc1C)ncc1nc(N(C)C)n(CC3CCOCC3)c12 ; IC50 = 31.6 nM

Entry COCCNc1nc2cnc3cc(-c4c(C)noc4C)c(OC)cc3c2n1Cc1ccccn1 — recorded IC50 = 31.6 nM

Sure, the documented IC50 for COC[C@H](C)n1c(C2CCOCC2)nc2cnc3cc(-c4c(C)noc4C)c(OC)cc3c21 is 158 nM

For record CCCC(C)n1c(=O)[nH]c2cnc3cc(-c4c(C)noc4C)c(OC)cc3c21 (stereo unspecified) the listed IC50 is 126 nM

Recorded result, COCC(C)n1c(=O)[nH]c2cnc3cc(-c4c(C)noc4C)c(OC)cc3c21 (racemic) , IC50: 631 nM

// sample COc1cc2c(cc1-c1c(C)noc1C)ncc1[nH]c(=O)n(CC3CCOCC3)c12 , its IC50 was 100 nM

Quick note, IC50 for COCc1nc2cnc3cc(-c4c(C)noc4C)c(OC)cc3c2n1Cc1ccccn1 landed at 63.1 nM

IC50 in this record for COc1cc2c(cc1-c1c(C)noc1C)ncc1[nH]c(=O)n(CC(C)C)c12 : 794 nM

Given item CCCc1nc2cnc3cc(-c4c(C)noc4C)c(OC)cc3c2n1Cc1ccccn1 , the value recorded as its IC50 is 25.1 nM

The compound COc1cc2c(cc1-c1c(C)noc1C)ncc1nc(C(C)C)n(Cc3ccccn3)c12 showed IC50 equal to 39.8 nM

The compound listed as CCc1nc2cnc3cc(-c4c(C)noc4C)c(OC)cc3c2n1Cc1ccccn1 shows IC50 equal to 31.6 nM

GET /value?item= COC[C@@H](C)n1c(C2CCOCC2)nc2cnc3cc(-c4c(C)noc4C)c(OC)cc3c21 &field=IC50 returns 39.8 nM

Recorded IC50 (compound COc1cc2c(cc1-c1c(C)noc1C)ncc1nc(C)n(Cc3ccccn3)c12 ): 39.8 nM

// field: IC50; key: COCc1nc2cnc3cc(-c4c(C)noc4C)c(OC)cc3c2n1C(C)COC (racemic) ; value = 200 nM

Given item COc1cc2c(cc1-c1c(C)noc1C)ncc1[nH]c(=O)n(CC3CCN(C)CC3)c12 , the value recorded as its IC50 is 1260 nM

IC50 for COc1cc2c(cc1-c1c(C)noc1C)ncc1nc(N3CCOCC3)n(CC3CCOCC3)c12 is 39.8 nM

compound COc1cc2c(cc1-c1c(C)noc1C)ncc1nc(C3CCOCC3)n(CC3CC3)c12 , IC50 observed: 126 nM

According to the records, this compound COc1cc2c(cc1-c1c(C)noc1C)ncc1nc(C3CCOCC3)n(C(C)C3CCOCC3)c12 (stereo unspecified) displays IC50 of 31.6 nM
